biological target: TPR-MET fusion protein (Homo sapiens, UniProt P08581); assay: C-Met phosphorylation cell-based assay (MNNGHOS cells, immunoblot); conditions: Table 30, 3 hours treatment, read-out: C-Met cell-based Y1230-34-35 tpr-met inhibition (IC50)
Sequence (P08581 with tags, fused parts or gaps): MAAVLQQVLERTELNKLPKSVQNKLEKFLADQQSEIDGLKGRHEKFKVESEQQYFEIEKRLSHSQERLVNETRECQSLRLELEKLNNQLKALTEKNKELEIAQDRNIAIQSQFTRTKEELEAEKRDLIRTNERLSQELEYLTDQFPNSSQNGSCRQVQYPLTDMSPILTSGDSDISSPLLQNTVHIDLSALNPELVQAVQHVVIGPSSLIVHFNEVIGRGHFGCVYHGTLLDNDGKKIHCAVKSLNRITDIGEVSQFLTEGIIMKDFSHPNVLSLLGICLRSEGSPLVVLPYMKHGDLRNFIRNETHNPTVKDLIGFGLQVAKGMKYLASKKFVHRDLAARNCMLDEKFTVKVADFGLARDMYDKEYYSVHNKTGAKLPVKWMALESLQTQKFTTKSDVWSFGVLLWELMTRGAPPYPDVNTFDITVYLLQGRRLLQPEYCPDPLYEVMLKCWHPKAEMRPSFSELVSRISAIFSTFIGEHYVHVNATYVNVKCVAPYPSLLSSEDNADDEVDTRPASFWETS
pIC50: −log10 of the molar value. Counter-ions that a name gives are not always drawn.
Let's look at some compounds and their measured pIC50.

Below: 3 compounds and their reported pIC50.
{"columns": ["compound", "test-readout", "reported-value"],
 "data": [
  ["CC(C)N(CCNC(=O)c1cc2nccc(Oc3ccc(NC(=S)NC(=O)Cc4ccccc4)cc3F)c2s1)C(C)C [Example 36, formate salt]", "pIC50", "6.60 to 7.30"],
  ["CN(Cc1ccco1)C(=O)c1cc2nccc(Oc3ccc(NC(=S)NC(=O)Cc4ccccc4)cc3F)c2s1", "pIC50", "> 7.30"],
  ["COC(=O)C(C)N(C(=S)NC(=O)Cc1ccccc1)c1ccc(Oc2ccnc3cc(C(N)=O)sc23)c(F)c1 (centres unmarked)", "pIC50", "6.60 to 7.30"]
]}

I have this compound here, CCN(CC)C(=O)c1cc2nccc(Oc3ccc(NC(=S)NC(=O)Cc4ccccc4)cc3F)c2s1 , and I need its recorded pIC50.
6.60 to 7.30

Using the record for O=C(Cc1ccccc1)NC(=S)Nc1ccc(Oc2ncnc3cc(C(=O)N4CCCC4)sc23)c(F)c1 , report its pIC50.
> 7.30
